- Tested on: C. albicans SC5314
- Assay explanation: In vitro activity (MFC) against the infecting strain, Example 18
- Format: cell-based, Candida albicans
- Settings: Candida albicans, read-out: MFC
Quantity name: MFC (µg/mL)
Give bare numbers, in µg/mL.

CC[C@H](C)C[C@H](C)CCCCCCCCC(=O)N[C@H]1C[C@@H](O)[C@@H](NCCN)NC(=O)[C@@H]2[C@@H](O)CCN2C(=O)[C@H]([C@H](O)CCN)NC(=O)[C@H]([C@H](O)[C@@H](O)c2ccc(O)cc2)NC(=O)[C@@H]2C[C@@H](O)CN2C(=O)[C@H]([C@@H](C)O)NC1=O; 32

Proceeding to the next molecule to report its MFC.
# input Requested field: MFC. Item: C[C@@H]1[C@H](O)[C@@H](C)/C=C/C=C/C=C/C=C/C=C/C=C/C=C/[C@H](O[C@@H]2O[C@H](C)[C@@H](O)[C@H](N)[C@@H]2O)C[C@@H]2O[C@](O)(C[C@@H](O)[C@H](O)CC[C@@H](O)C[C@@H](O)C[C@@H](O)CC(=O)O[C@H]1C)C[C@H](O)[C@H]2C
# output 0.5

Hello, the source for this data is patent US20230138395A1, in case you need it.
